# system-tested: Cytochrome P450 2C19 (Homo sapiens)
# test-summary: qHTS Assay for Inhibitors and Substrates of Cytochrome P450 2C19 (AID 899); further: nearly all actives have a fitted effect of over 60% in size; further: potency means the concentration at half of the fitted maximal effect
# test-conditions: recombinant CYP2C19, luciferin-H EGE luminescence; series mostly up to 57.1 µM
Records with an inconclusive call do not appear. Activity calls are given as the source filed them. The call rests on the fitted dose curve; in most records, active means well fitted inhibition curve with a large enough effect; inconclusive means small, poorly fitted or top-dose-only effect; inactive means no such curve, though single readings can be large or run the other way.

# item-smiles, system-tested, Potency
measured = [
    ("CCCn1c(C)c(C(=O)c2ccc3ccccc3c2)c2ccccc21", "Cytochrome P450 2C19 (Homo sapiens)", "7.94 µM (active)"),
    ("O=[N+]([O-])c1cc(O)c(O)c([N+](=O)[O-])c1", "Cytochrome P450 2C19 (Homo sapiens)", "inactive"),
    ("Nc1ccc(CCN2CCN(c3cccc(C(F)(F)F)c3)CC2)cc1", "Cytochrome P450 2C19 (Homo sapiens)", "7.94 µM (active)"),
    ("CCC1(C)CC(=O)NC(=O)C1", "Cytochrome P450 2C19 (Homo sapiens)", "inactive"),
    ("CN(N=O)c1ccc(O)c(O)c1", "Cytochrome P450 2C19 (Homo sapiens)", "inactive"),
    ("O=P(O)(O)C(Cl)(Cl)P(=O)(O)O", "Cytochrome P450 2C19 (Homo sapiens)", "inactive"),
]

###

# test-summary: qHTS for differential inhibitors of proliferation of Plasmodium falciparum line D10 (AID 1877);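 further: parasites grown with compound for 72 h before DNA staining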
# test-conditions: series mostly up to 28.7 µM
Inconclusive results are not listed. The source made the active and inactive calls. The call rests on the fitted dose curve; in most records, active means well fitted curve in the direction sought with a large enough effect; inconclusive means small, poorly fitted or top-dose-only effect, or another doubt; inactive means no such curve, though single readings can be large or run the other way.
Possible outcomes: Yes for active, No for inactive

# molecule, assigned-class
measured = [
    ("NNC(N)=O", "No"),
    ("O=P(O)(O)C(Cl)(Cl)P(=O)(O)O", "No"),
    ("CCN(CC)c1ncnc2c1ncn2[C@@H]1O[C@H](COP(=O)(O)OP(=O)(O)C(Br)(Br)P(=O)(O)O)[C@@H](O)[C@H]1O", "No"),
    ("CN(N=O)c1ccc(O)c(O)c1", "No"),
    ("COc1ccc2[nH]cc(CCN)c2c1", "No"),
    ("C[N+]1(C)C2CCC1CC(OC(=O)c1c[nH]c3ccccc13)C2 (configuration not stated)", "Yes"),
    ("c1ccc2c(c1)[I+]c1ccccc1-2", "Yes"),
    ("COc1ccc(CNC(=O)/C=C/c2ccc3[nH]cc(CCN(C)C)c3c2)cc1", "Yes"),
    ("CN1CCc2cccc(Cl)c2CC1", "No"),
    ("CCS(=O)(=O)Nc1cccc(C(=C2CCCCC2)c2cnc[nH]2)c1", "Yes"),
    ("O=[N+]([O-])c1ccc2nc(N3CCNCC3)ccc2c1", "Yes"),
    ("Cc1[nH]c2ccc(O)cc2c1CCN", "No"),
    ("C#CCN[C@H](C)Cc1ccccc1", "No"),
    ("CC1(C(=O)O)C2CCC(O2)C1(C)C(=O)O (configuration not stated)", "Yes"),
    ("CC12NC(Cc3ccccc31)c1ccccc12 (configuration not stated)", "No"),
    ("COc1ccc2c(c1OC)C(=O)OC2C1c2cc3c(cc2CCN1C)OCO3 (configuration not stated)", "No"),
    ("CCCN(CCC)C1CCc2cccc(O)c2C1 (configuration not stated)", "No"),
    ("NC(Cc1cc(O)c(O)cc1O)C(=O)O (configuration not stated)", "No"),
    ("CN1C2CCC1CC(OC(c1ccccc1)c1ccc(Cl)cc1)C2 (configuration not stated)", "Yes"),
    ("Oc1ccc2c3c1O[C@H]1c4oc5ccccc5c4C[C@@]4(O)C(C2)N(CC2CC2)CCC314 (some centres not stated)", "Yes"),
    ("NNC(=O)c1ccc(O)cc1", "No"),
    ("NCC(O)c1cc(O)c(O)cc1F (configuration not stated)", "No"),
    ("NCC(CP(=O)(O)O)c1ccc(Cl)cc1 (configuration not stated)", "No"),
    ("COc1ccc2c(c1)/C(=C/c1cnc[nH]1)C(=O)N2", "Yes"),
    ("C=CCN1C[C@@H](C)N([C@H](c2ccc(C(=O)N(CC)CC)cc2)c2cccc(OC)c2)C[C@@H]1C", "Yes"),
    ("O=[N+]([O-])c1cc(O)c(O)c([N+](=O)[O-])c1", "No"),
    ("CC(=O)c1c(O)c(C)c(O)c(Cc2c(O)c3c(c(C(=O)/C=C/c4ccccc4)c2O)OC(C)(C)C=C3)c1O", "Yes"),
]

###

# System: PAD
# test-summary: qHTS profiling for inhibitors of Plasmodium falciparum proliferation (AID 504749); further: nearly all actives have a fitted effect of over 60% in size
# test-conditions: P. falciparum in erythrocytes, SYBR Green DNA, 72 h; series mostly up to 28.7 µM
# Protocol: NIH National Institute of Allergy and Infectious Diseases [NIAID] NIH Chemical Genomics Center [NCGC] […] Because mature erythrocytes lack DNA, only Plasmodium-derived DNA is detected. NCGC Assay Protocol Summary: The SYBR Green viability assay was adapted from a method described previously (Plouffe et al., 2008). […] The following morning, fluorescence intensity at 485(14) nm excitation and 535(25) nm emission wavelengths was measured on an EnVision (Perkin Elmer) plate reader. […]
Records with an inconclusive call do not appear. Active and inactive are the calls of the source. The call rests on the fitted dose curve; in most records, active means well fitted inhibition curve with a large enough effect; inconclusive means small, poorly fitted or top-dose-only effect; inactive means flat fitted curve, though single readings scatter.
Possible outcomes: Yes for active, No for inactive

# compound, system-tested, assigned-class
data = [
    ("CCC(C)(S(=O)(=O)CC)S(=O)(=O)CC", "PAD", "No"),
    ("c1ccc2sc(SNC3CCCCC3)nc2c1", "PAD", "No"),
    ("ClC=C(Cl)Cl", "PAD", "No"),
    ("CNC(C)C(O)c1ccc(O)cc1 (stereo not given)", "PAD", "No"),
    ("O=C(NC(=O)c1c(F)cccc1F)Nc1ccc(Cl)c(Oc2ncc(C(F)(F)F)cc2Cl)c1", "PAD", "No"),
    ("N#CN", "PAD", "No"),
    ("Clc1ccc(Cl)cc1", "PAD", "No"),
    ("CC(=O)OC1CN2CCC1CC2 (stereo not given)", "PAD", "No"),
    ("COC([CH2][Hg])CNC(=O)c1ccccc1OCC(=O)O (stereo not given)", "PAD", "No"),
    ("c1cc2c(c(NC3=NCCN3)c1)CCCC2", "PAD", "No"),
    ("O=C(CS(=O)C(c1ccccc1)c1ccccc1)NO (stereo not given)", "PAD", "No"),
    ("CCC1(CC)C(=O)NC(=O)N(C)C1=O", "PAD", "No"),
    ("CC(C)(O)C1C2OC(=O)C1C1(O)CC3OC34C(=O)OC2C14C (stereo not given)", "PAD", "No"),
    ("C/C(=C\\c1csc(C)n1)[C@@H]1C[C@@H]2O[C@]2(C)CCC[C@H](C)[C@H](O)[C@@H](C)C(=O)C(C)(C)[C@@H](O)CC(=O)O1", "PAD", "Yes"),
    ("O=C1CC[C@@]2(O)C3Cc4ccc(O)c5c4C2(CCN3CC2CC2)[C@H]1O5 (stereo not given in full)", "PAD", "No"),
    ("C[N+]1(C)C2CCC1CC(OC(=O)c1c[nH]c3ccccc13)C2 (stereo not given)", "PAD", "No"),
    ("CCCCCCCCOC(=O)c1ccccc1C(=O)OCCCCCCCC", "PAD", "No"),
    ("O=P(O)(O)C(Cl)(Cl)P(=O)(O)O", "PAD", "No"),
    ("F/C(COc1ccc2c(c1)[nH]c1ccccc12)=C1/CN2CCC1CC2", "PAD", "Yes"),
    ("O=S(=O)(O)c1cc(O)ccc1O", "PAD", "No"),
    ("O=C1CN=C(c2ccccc2)c2cc(Cl)ccc2N1CC1CC1", "PAD", "No"),
    ("C[CH2][Hg][S]c1ccccc1C(=O)O", "PAD", "Yes"),
    ("O=C(NCNC(=O)NC1C(=O)NC(=O)N1CO)NC1C(=O)NC(=O)N1CO (stereo not given)", "PAD", "No"),
    ("CN1c2ccccc2C(NCCCCCCC(=O)O)c2ccc(Cl)cc2S1(=O)=O (stereo not given)", "PAD", "No"),
    ("COc1ccc2c3c1O[C@H]1C(=O)CC[C@H]4[C@@H](C2)N(C)CC[C@]314", "PAD", "No"),
]

###

max response reference
# Tested on: KB-3-1
# test-summary: Cytotoxic Profiling of Annotated Libraries Using Quantitative High-Throughput Screening (AID 1296008); further: on the % scale 0 is the no-effect control and ±100 the full control effect; nearly all actives have a fitted effect of over 60% in size
# test-conditions: Five cell lines viability, CellTiter-Glo ATP luminescence, 48-72 h; hits give low values
Results filed as inconclusive are left out. The source made the active and inactive calls. Calls follow the shape of the dose curve; as a rule, active = well fitted inhibition curve with a large enough effect; inconclusive = small, poorly fitted or top-dose-only effect; inactive = flat fitted curve, though single readings scatter.
observable: max response

# molecule, value-measured
records = [
    ("CCNC1(c2cccs2)CCCCC1=O (stereo not given)", "-6.94% (inactive)"),
    ("C=CCN=C=S", "-2.35% (inactive)"),
    ("CC(C)CCC(=O)O[C@H]1CC[C@H]2[C@@H]3CCC4=CC(=O)CC[C@]4(C)[C@H]3CC[C@]12C", "19.3% (inactive)"),
    ("CN1[C@@H]2CC[C@H]1CC(OC1c3ccccc3CCc3ccccc31)C2 (stereo not given in full)", "1.95% (inactive)"),
    ("Clc1ccc(OCC2=NCCN2)cc1Cl", "6.44% (inactive)"),
    ("CCC(C)(OC(C)=O)C(=O)O[C@H]1[C@H](OC(C)=O)C[C@@H]2[C@@](C)([C@@H]3C[C@H]4C=CO[C@H]4O3)[C@H](C)C[C@H](OC(C)=O)[C@@]2(COC(C)=O)[C@@]12CO2 (stereo not given in full)", "8.14% (inactive)"),
    ("C[C@@H](Cc1ccccc1)N(C)C", "9.66% (inactive)"),
    ("C=CC(C)(O)CC/C=C(\\C)C(=O)O[C@H]1[C@H](O)[C@@H](CO)O[C@@H](OC(=O)[C@]23CCC(C)(C)CC2C2=CCC4[C@@]5(C)CC[C@H](O[C@@H]6O[C@H](CO[C@@H]7OC[C@H](O)[C@H](O)[C@H]7O[C@@H]7OC[C@@H](O)[C@H](O)[C@H]7O)[C@@H](O)[C@H](O)[C@H]6O)C(C)(C)C5CC[C@@]4(C)[C@]2(C)CC3)[C@@H]1OC1OC(C)C(O[C@@H]2OC[C@@H](O)[C@H](O[C@@H]3OC[C@@H](O)[C@H](O)[C@H]3O)[C@H]2O)C(O)C1O (stereo not given in full)", "-0.269% (inactive)"),
    ("CCCC(C)(COC(N)=O)COC(=O)NC1CC1 (stereo not given)", "-23.5% (inactive)"),
    ("N#CN", "-5.54% (inactive)"),
]

Data origin, for the record: PubChem BioAssay (NCATS)
